- study system: monkey GPC3-His protein (monkey)
- procedure summary: ELISA, monkey GPC3-His coated; antibody 0.004 nM
Below is a list of entries, each paired with its recorded OD450 nm value.
The response must contain the number and no unit.

Examples from the recorded data:
- binder: "hAb003LH3L1 (antibody, human IgG1, V domains shown) VH: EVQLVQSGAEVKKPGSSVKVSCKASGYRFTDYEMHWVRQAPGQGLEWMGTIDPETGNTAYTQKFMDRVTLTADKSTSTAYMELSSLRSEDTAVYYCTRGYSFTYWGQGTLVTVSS VL: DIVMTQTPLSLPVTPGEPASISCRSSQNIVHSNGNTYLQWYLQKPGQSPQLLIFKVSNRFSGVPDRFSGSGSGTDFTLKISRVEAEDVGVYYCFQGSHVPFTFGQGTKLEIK"
  readout kind: "OD450 nm"
  measured number: 0.357
- binder: "hAb003LH3L1a (antibody, human IgG1, V domains shown) VH: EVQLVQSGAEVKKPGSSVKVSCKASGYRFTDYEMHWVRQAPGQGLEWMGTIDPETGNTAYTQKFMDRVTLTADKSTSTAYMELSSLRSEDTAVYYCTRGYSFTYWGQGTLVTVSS VL: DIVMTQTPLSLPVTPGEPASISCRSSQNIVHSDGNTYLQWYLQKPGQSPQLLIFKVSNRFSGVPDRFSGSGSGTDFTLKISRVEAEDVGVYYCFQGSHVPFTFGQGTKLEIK"
  readout kind: "OD450 nm"
  measured number: 0.202

Q: Given hAb005LH1L1 (antibody, human IgG1, V domains shown) VH: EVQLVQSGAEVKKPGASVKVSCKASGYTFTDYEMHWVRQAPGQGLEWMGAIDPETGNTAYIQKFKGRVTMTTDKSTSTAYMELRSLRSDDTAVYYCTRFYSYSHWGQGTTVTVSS VL: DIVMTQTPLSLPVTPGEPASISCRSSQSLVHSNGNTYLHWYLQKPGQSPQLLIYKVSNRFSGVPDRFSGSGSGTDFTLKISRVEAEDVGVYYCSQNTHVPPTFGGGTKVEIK , respond with its OD450 nm.
A: 0.103
